Experiment: Surface tension measurements (tensiometry), CMC determination
Assay type: physicochemical
Condition: in water, room temperature
Quantity Kind: γCMC (surface tension at CMC) (mN/m)

>>> readout_value("CCCCCCCCCCCCCCCC(=O)OC[C@H]1O[C@@H](O[C@H]2[C@H](O)[C@@H](O)[C@@H](O)O[C@@H]2CO)[C@H](O)[C@@H](O)[C@H]1O [Lactose palmitate]")
45.1
>>> readout_value("CCCCCCCCCCCCCC(=O)OC[C@H]1O[C@@H](O[C@H]2[C@H](O)[C@@H](O)[C@@H](O)O[C@@H]2CO)[C@H](O)[C@@H](O)[C@H]1O [Lactose myristate]")
45.6
>>> readout_value("CCCCCCCCCCCC(=O)OC[C@H]1O[C@@H](O[C@H]2[C@H](O)[C@@H](O)[C@@H](O)O[C@@H]2CO)[C@H](O)[C@@H](O)[C@H]1O [Lactose laurate]")
40.4
>>> readout_value("CCCCCCCCCC(=O)OC[C@H]1O[C@@H](O[C@H]2[C@H](O)[C@@H](O)[C@@H](O)O[C@@H]2CO)[C@H](O)[C@@H](O)[C@H]1O [Lactose caprate]")
40.6

====

Experiment: Surface tension measurements (tensiometry), CMC determination
Format: physicochemical
Condition: values × 10^−6; Gibbs equation from surface tension plot
Quantity Kind: Γmax × 10^−6 (maximum surface excess) (mol/m^2)

// below: answered compounds
>>> readout_value("CCCCCCCCCCCCCC(=O)OC[C@H]1O[C@@H](O[C@H]2[C@H](O)[C@@H](O)[C@@H](O)O[C@@H]2CO)[C@H](O)[C@@H](O)[C@H]1O [Lactose myristate]")
8.37
>>> readout_value("CCCCCCCCCC(=O)OC[C@H]1O[C@@H](O[C@H]2[C@H](O)[C@@H](O)[C@@H](O)O[C@@H]2CO)[C@H](O)[C@@H](O)[C@H]1O [Lactose caprate]")
9.52

a: CCCCCCCCCCCCCCCC(=O)OC[C@H]1O[C@@H](O[C@H]2[C@H](O)[C@@H](O)[C@@H](O)O[C@@H]2CO)[C@H](O)[C@@H](O)[C@H]1O [Lactose palmitate]
b: CCCCCCCCCCCC(=O)OC[C@H]1O[C@@H](O[C@H]2[C@H](O)[C@@H](O)[C@@H](O)O[C@@H]2CO)[C@H](O)[C@@H](O)[C@H]1O [Lactose laurate]
Q: Which is greater in Γmax × 10^−6 (maximum surface excess), the first item a or the second item b ? Refer to your chosen entry by its label in the reply.
Ans: b
(b: 9.52 mol/m^2, a: 6.46 mol/m^2)

# credit: paper PMC6161018
